test system: KG-1; assay: Anti-proliferative activity (ATPLite); format: cell-based; conditions: Homo sapiens; KG-1, Leukaemia; +/− standard error; read-out: Antiproliferative activity EC50
MEASURED_METRIC: EC50 (nM)
Please respond with the number in nM and leave the unit unwritten.

So, COc1ccc2cc1Oc1ccc(cc1)C[C@@H]1NCCc3cc(OC)c4c(c31)Oc1cc3c(cc1O4)CCN(C)[C@H]3C2 ? Its EC50 was 2200

* * *

target: human C-terminal DNMT3A (a.a. 623-908) (Homo sapiens); construct: The human C-terminal DNMT3A (a.a. 623-908); made in house; experiment: hDNMT3A restriction-based fluorescence assay; type: biochemical; conditions: 32 μM; read-out: hDNMT 3A inhibition, Inhibition (%)
Sequence (Q9Y6K1 627-912): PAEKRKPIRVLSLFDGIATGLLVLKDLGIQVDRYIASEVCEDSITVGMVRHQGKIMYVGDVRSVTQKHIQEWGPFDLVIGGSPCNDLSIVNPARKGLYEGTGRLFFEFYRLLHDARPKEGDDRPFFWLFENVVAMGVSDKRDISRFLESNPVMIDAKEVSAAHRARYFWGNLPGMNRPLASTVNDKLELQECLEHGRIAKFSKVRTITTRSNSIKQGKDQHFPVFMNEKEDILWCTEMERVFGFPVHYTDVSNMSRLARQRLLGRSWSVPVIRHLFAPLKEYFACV
Each entry gets No if its inhibition at 32 µM stays under 80%, and Yes if its inhibition at 32 µM is 80% or above.

COc1cc2c3c4c1Oc1cc5c(cc1O4)[C@H](Cc1ccc(O)c(c1)Oc1ccc(cc1)C[C@@H]3N(C)CC2)NCC5 [Compound 6, Cocsoline]    Yes
COc1cc2c3c4c1Oc1cc5c(cc1O4)C(=NCC5)Cc1ccc(O)c(c1)Oc1ccc(cc1)C[C@@H]3N(C)CC2 [Compound 8, 1,2-Dehydroapateline]    No
COc1ccc2cc1Oc1ccc(cc1)C[C@@H]1NCCc3cc(OC)c4c(c31)Oc1cc3c(cc1O4)CCN(C)[C@H]3C2 [Compound 1, Trilobine]    Yes
COc1ccc2cc1Oc1ccc(cc1)C[C@H]1c3c(cc(OC)c4c3Oc3cc5c(cc3O4)CCN[C@H]5C2)CCN1C [Compound 3, O-Methylcocsoline]    Yes
COc1ccc2cc1Oc1ccc(cc1)C[C@H]1c3c(cc(OC)c4c3Oc3cc5c(cc3O4)CCN=C5C2)CCN1C [Compound 9, 1,2-Dehydrotelobine]    No

Exam item: decide whether the reported inhibition at 32 µM for COc1ccc2cc1Oc1ccc(cc1)C[C@H]1c3c(cc(OC)c4c3Oc3cc5c(cc3O4)CCN(C)[C@H]5C2)CCN1C [Compound 2, Isotrilobine] is at least 80%.
No
